# EXPERIMENTAL_DETAILS: qHTS for inhibitors of binding or entry into cells for Marburg Virus
# MEASUREMENT_PARAMETERS: Marburg virus pseudotyped entry inhibition, cell reporter; series mostly up to 37.8 µM
Hit rate of the full screen: of about 300,000 compounds, about 5,400 (1.8%) were called active. Another 28% or so got no clear call; they are omitted. Calls follow the shape of the full dose curve; tested in HEK293 cells. The entries come from a sample that favours actives as a whole.
One label from this list, please: Y (active), N (inactive)

# count of solved cases: 6
O=C(COC(=O)c1ccc(F)cc1)Nc1nc2ccc([N+](=O)[O-])cc2s1 ... N
Cc1ccc(C(=O)Nc2ccc(NC(=O)c3cccs3)cc2)c(C)c1 ... N
COc1ccc(CN2CCN(C(=O)CCC(=O)Nc3nnc(C(C)C)s3)CC2)cc1F ... N
Cn1ncc2c(Nc3cccc4ccccc34)ncnc21 ... N
CN(C)c1ccc(CNC23CN4CN(CN(C4)C2)C3)cc1 ... N
O=C(NN=CC=Cc1ccccc1)C(O)C(O)C(=O)NN=CC=Cc1ccccc1 (stereo unspecified) ... N

Please examine the following record next.
Hey, what did the test say about O=C(Nc1ccccc1)c1ccc(NC(=O)c2cccs2)cc1 ? N

----------
# EXPERIMENTAL_DETAILS: qHTS for inhibitors of binding or entry into cells for Marburg Virus
# MEASUREMENT_PARAMETERS: Marburg virus pseudotyped entry inhibition, cell reporter; series mostly up to 37.8 µM
Out of some 300,000 compounds screened, about 5,400 (1.8%) were called active. Roughly 28% stayed inconclusive and do not appear here. Calls come from the whole dose curve; tested in HEK293 cells. This excerpt belongs to a sample that is enriched for actives.
Pick one and only one: Y for active, N for inactive

O=C(CCCO)N/N=C/c1cc(Br)ccc1O ... N
CN(Cc1ccccc1Cl)C(=O)C1CCC(=O)N(CCc2cccc(F)c2)C1 (stereo unspecified) ... N
O=C(NN=Cc1ccccc1O)NN=Cc1ccccc1O ... Y

Tell me the assay call for COc1cc2[nH]c(=S)n(Cc3ccc(C)o3)c(=O)c2cc1OC please. N

State the result this test recorded for COc1cccc(/C=N\NC(=O)C2=NNC(=O)C2C)c1O (stereo unspecified) . N

Please indicate how the test categorized Cc1cc(Br)ccc1NC(=O)c1cnc(N2CCN(c3ccccn3)CC2)c2ccccc12 . Y

----------
# EXPERIMENTAL_DETAILS: qHTS for inhibitors of binding or entry into cells for Marburg Virus
# MEASUREMENT_PARAMETERS: Marburg virus pseudotyped entry inhibition, cell reporter; series mostly up to 37.8 µM
Screen size: about 300,000 compounds; about 5,400 (1.8%) were called active. Another 28% or so got no clear call; they are omitted. Calls come from the whole dose curve; tested in HEK293 cells. This excerpt belongs to a sample that is enriched for actives.
Please state which outcome applies, choosing from T for active, F for inactive

Record excerpt, results attached:
CN(C(=O)CCNC(=O)Cn1ccc2ccccc2c1=O)c1ccc(Br)cc1 ... F
CC1CC(C)CN(CCC(=O)Nc2ccc3c(c2)CCC3)C1 (stereo unspecified) ... T
O=[N+]([O-])c1ccc(NS(=O)(=O)c2ccccc2)c(Cl)c1 ... T
FC(F)(F)Oc1ccc(NC(=S)NCc2ccccc2)cc1 ... T
Cc1ccc(C(=O)O)c(NC=O)c1OCc1ccccc1 ... F

State the result this test recorded for CN(Cc1ccccc1)C(=O)C1CCCN(c2ncnc3c2nc2n3CCCCC2)C1 (stereo unspecified) . F

GET /call?item= S=C(NCCc1ccccc1)Nc1ccccc1 returns the recorded outcome of this test. F
